System: Meloidogyne incognita
Experiment: Meloidogyne incognita test: compound solution poured into pots with soil (loamy sand), salad seeds, gall formation after 21 days
Format: in vivo
Conditions: application rate 2 ppm, salad in soil
# nematicidal activity on the basis of the percentage of gall formation (100% = no galls) listing for each entry below
MEASURED_ENDPOINT: nematicidal activity on the basis of the percentage of gall formation (100% = no galls) (%)

COMPOUND: COc1ccc(Cl)c(S(=O)(=O)NC(=O)c2cn3c(C)c(C(F)(F)F)sc3n2)c1 [Example I-1-159]
EXPERIMENTAL_RESULT: 95
//
COMPOUND: COc1ccc(F)c(S(=O)(=O)NC(=O)c2cn3cc(C(F)(F)F)sc3n2)c1 [Example I-1-27]
EXPERIMENTAL_RESULT: 80
//
COMPOUND: O=C(NS(=O)(=O)c1cc(C(F)(F)F)ccc1Cl)c1cn2cc(C(F)(F)F)sc2n1 [Example I-1-4]
EXPERIMENTAL_RESULT: 97
//
COMPOUND: O=C(NS(=O)(=O)c1ccccc1Cl)c1cn2cc(C(F)(F)F)sc2n1 [Example I-1-3]
EXPERIMENTAL_RESULT: 95
//
COMPOUND: COc1ccc(Cl)c(S(=O)(=O)NC(=O)c2cn3cc(C(F)(F)F)sc3n2)c1 [Example I-1-1]
EXPERIMENTAL_RESULT: 95
//
COMPOUND: Cc1c(C(F)(F)F)sc2nc(C(=O)NS(=O)(=O)c3c(Cl)cccc3Cl)cn12 [Example I-1-158]
EXPERIMENTAL_RESULT: 98

* * *

Catalogue of nematicidal activity on the basis of the percentage of gall formation (100% = no galls) readings, one per entry.
System: Meloidogyne incognita
Experiment: Meloidogyne incognita test: compound solution poured into pots with soil (loamy sand), salad seeds, gall formation after 21 days
Type: in vivo
Settings: application rate 8 ppm, salad in soil
MEASURED_ENDPOINT: nematicidal activity on the basis of the percentage of gall formation (100% = no galls) (%)

COMPOUND: Cc1c(C(F)(F)C(F)(F)F)sc2nc(C(=O)NS(=O)(=O)c3c(Cl)cccc3Cl)cn12 [Example I-1-254]
EXPERIMENTAL_RESULT: 85
--
COMPOUND: O=C(NS(=O)(=O)c1c(Cl)cccc1Cl)c1cn2cc(C(F)(F)C(F)(F)F)sc2n1 [Example I-1-146]
EXPERIMENTAL_RESULT: 90
--
COMPOUND: Cc1c(C(F)(F)C(F)(F)F)sc2nc(C(=O)NS(=O)(=O)c3c(F)cccc3F)cn12 [Example I-1-252]
EXPERIMENTAL_RESULT: 95
--
COMPOUND: O=C(NS(=O)(=O)c1cc2c(cc1Cl)OC(F)(F)O2)c1cn2cc(C(F)(F)F)sc2n1 [Example I-1-12]
EXPERIMENTAL_RESULT: 95
